Each entry below carries its reported binding signal.
TARGET SYSTEM: T1, RBFOX1 RRM RbFoxmut (Fox-RRM*) (Homo sapiens, UniProt Q9NWB1 109-208, R118D;E147R;N151S;E152T)
T1 sequence: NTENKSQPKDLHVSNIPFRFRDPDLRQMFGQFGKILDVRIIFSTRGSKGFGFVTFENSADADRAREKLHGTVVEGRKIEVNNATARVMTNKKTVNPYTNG
ASSAY EXPLANATION: EMSA; HiTS-Eq, 1 nM pool, 10 min; buffer printed only for the single-RNA assays: 10 mM Tris pH 7.5, 150 mM NaCl, 3.4 mM EDTA, 0.001% NP-40, 30 C
STUDY CONDITIONS: tags: His6 N-terminal (pET28a); label: 5' 32P
The full ranking holds about 16,000 sequences; the median of “ka relative to ugcaugu” is about 0.096, and the highest 2% start at about 0.35. For the sample, the highest values were picked, then their nearest neighbours and some sequences at random.
PROPERTY LABEL: binding signal

| BINDER | OBS VALUE |
| --- | --- |
| CUGUACC (DNA:RNA) RNA: GGGAGACCGGAAUUCAGAUUGUCCCUGUACCUUAAAUCCCGUCGUAGCCACCA DNA 1: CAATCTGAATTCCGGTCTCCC DNA 2: TGGTGGCTACGACGGGATT | 0.137 KA relative to UGCAUGU |
| CCCGUAG (DNA:RNA) RNA: GGGAGACCGGAAUUCAGAUUGUCCCCCGUAGUUAAAUCCCGUCGUAGCCACCA DNA 1: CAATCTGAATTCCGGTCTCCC DNA 2: TGGTGGCTACGACGGGATT | 0.101 KA relative to UGCAUGU |
| ACAGGAC (DNA:RNA) RNA: GGGAGACCGGAAUUCAGAUUGUCCACAGGACUUAAAUCCCGUCGUAGCCACCA DNA 1: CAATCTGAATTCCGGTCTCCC DNA 2: TGGTGGCTACGACGGGATT | 0.0906 KA relative to UGCAUGU |
| GAUAGUG (DNA:RNA) RNA: GGGAGACCGGAAUUCAGAUUGUCCGAUAGUGUUAAAUCCCGUCGUAGCCACCA DNA 1: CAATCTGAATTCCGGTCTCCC DNA 2: TGGTGGCTACGACGGGATT | 0.126 KA relative to UGCAUGU |

Reference for the values: paper PMC9911399
